Values from patent US8148391B2

Entries and their pIC50 values follow.
# test_target: c-Met (cytoplasmic domain) (Homo sapiens, UniProt P08581)
# Construct: 10 ng/mL c-Met (cytoplasmic domain, Invitrogen Corporation #PV3143); purchased Invitrogen Corporation PV3143
# Sequence (P08581 956-1390 limits assumed): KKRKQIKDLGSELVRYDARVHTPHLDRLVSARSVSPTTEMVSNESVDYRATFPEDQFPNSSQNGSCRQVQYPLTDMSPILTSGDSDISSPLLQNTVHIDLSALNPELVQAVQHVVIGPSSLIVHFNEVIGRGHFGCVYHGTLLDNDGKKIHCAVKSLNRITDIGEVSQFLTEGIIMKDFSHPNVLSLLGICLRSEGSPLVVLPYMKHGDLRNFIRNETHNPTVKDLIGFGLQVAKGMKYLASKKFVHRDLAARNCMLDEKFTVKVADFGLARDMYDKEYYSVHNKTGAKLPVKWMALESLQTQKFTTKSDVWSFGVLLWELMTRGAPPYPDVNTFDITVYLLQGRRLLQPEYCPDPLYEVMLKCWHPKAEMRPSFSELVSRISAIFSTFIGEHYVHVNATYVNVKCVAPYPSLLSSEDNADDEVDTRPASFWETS
# assay_procedure: c-Met Kinase Assay (same methods as for ALK, with modifications)
# Type: biochemical
# condition_details: c-Met kinase inhibition, 1 μM ATP (Km level); read-out: cMet Activity
pIC50: −log10 of the molar value.
experimental_readout: pIC50

COCCN1CCc2ccc(OC)c(Nc3ncc(Cl)c(Nc4ccc(N5CCOCC5)cc4OC)n3)c2CC1	< 5.00
CNC(=O)c1ccccc1Nc1nc(Nc2ccc3c(c2)CCN(C(=O)N(C)C)CC3)ncc1Cl	> 7.00
CNS(=O)(=O)c1ccccc1Nc1nc(Nc2ccc3c(c2)COC[C@@H]2CCCN32)ncc1Cl	5.00 to 6.00
CCN1C(=O)C(C)(C)CCc2c1ccc(Nc1ncc(Cl)c(N[C@@H]3CCCC[C@H]3NS(C)(=O)=O)n1)c2OC	< 5.00

----------
# test_target: baculovirus-expressed ALK (Homo sapiens, UniProt Q9UM73)
# Construct: host or cells: baculovirus expression system
# Sequence (Q9UM73 19-1620): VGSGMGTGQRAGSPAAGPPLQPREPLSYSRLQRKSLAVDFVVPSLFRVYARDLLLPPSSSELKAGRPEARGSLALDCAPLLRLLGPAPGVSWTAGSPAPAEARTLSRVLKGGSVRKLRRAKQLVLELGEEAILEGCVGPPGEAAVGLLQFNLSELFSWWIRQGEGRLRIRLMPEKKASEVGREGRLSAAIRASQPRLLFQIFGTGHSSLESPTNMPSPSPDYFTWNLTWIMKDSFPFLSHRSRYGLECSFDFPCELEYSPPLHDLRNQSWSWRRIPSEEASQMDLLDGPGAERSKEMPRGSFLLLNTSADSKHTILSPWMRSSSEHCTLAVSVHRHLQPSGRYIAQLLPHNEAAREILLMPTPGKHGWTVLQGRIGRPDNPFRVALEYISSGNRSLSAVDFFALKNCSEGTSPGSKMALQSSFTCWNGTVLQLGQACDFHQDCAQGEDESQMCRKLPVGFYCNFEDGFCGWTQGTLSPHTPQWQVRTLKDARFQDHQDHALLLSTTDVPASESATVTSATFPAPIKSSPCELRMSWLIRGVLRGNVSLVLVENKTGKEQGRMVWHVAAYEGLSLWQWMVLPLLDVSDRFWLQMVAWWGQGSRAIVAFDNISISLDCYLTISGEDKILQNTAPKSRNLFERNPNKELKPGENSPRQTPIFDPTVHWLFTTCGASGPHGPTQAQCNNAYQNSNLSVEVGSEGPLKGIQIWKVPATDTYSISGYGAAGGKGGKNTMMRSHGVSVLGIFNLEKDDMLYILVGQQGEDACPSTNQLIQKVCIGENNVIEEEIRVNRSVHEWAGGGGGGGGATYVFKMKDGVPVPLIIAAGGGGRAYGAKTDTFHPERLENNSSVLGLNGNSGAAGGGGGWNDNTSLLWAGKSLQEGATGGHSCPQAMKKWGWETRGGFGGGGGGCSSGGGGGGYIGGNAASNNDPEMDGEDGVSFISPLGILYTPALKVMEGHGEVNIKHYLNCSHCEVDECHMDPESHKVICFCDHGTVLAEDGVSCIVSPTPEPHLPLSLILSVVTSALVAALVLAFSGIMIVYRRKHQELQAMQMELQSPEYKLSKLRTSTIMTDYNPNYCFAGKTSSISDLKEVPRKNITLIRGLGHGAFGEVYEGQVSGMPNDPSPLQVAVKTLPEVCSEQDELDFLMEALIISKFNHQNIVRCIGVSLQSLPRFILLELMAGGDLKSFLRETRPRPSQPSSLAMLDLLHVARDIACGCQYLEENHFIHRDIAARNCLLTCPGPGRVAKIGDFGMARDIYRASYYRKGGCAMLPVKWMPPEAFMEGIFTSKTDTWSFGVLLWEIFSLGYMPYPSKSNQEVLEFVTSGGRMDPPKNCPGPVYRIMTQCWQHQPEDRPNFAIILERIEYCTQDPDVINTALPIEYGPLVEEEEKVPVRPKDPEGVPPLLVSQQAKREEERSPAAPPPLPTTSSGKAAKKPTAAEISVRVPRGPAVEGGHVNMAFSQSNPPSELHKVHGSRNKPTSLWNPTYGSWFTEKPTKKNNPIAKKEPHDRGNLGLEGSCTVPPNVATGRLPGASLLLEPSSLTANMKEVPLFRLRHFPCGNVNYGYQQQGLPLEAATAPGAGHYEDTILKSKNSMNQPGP
# assay_procedure: ALK Kinase Assay (ELISA-type, time-resolved fluorescence)
# Assay type: biochemical
# condition_details: ALK kinase inhibition, 1 μM ATP; read-out: ALK Activity
experimental_readout: IC50

CNC(=O)c1cccc(F)c1Nc1nc(Nc2ccc3c(c2)N(CCN(C)C)CCCC3(C)C)ncc1Cl	< 100 nM
CNC(=O)c1ncccc1Nc1nc(Nc2ccc3c(c2)CC(=O)N(C)CC3)ncc1Cl	< 100 nM
CNC(=O)c1ccc2c(c1Nc1nc(Nc3ccc4c(c3)CCN(CCOC)CC4)ncc1Cl)OCO2	100 to 1000 nM
CNC(=O)c1sccc1Nc1nc(Nc2ccc3c(c2)N(C(C)=O)CCCO3)ncc1Cl	1000 to 10000 nM
COCCN1CCc2ccc(Nc3ncc(Cl)c(Nc4ccccc4S(=O)(=O)N(C)C)n3)cc2CC1	< 100 nM
CNC(=O)c1cccc(F)c1Nc1nc(Nc2ccc3c(c2)-c2nccn2CCC3)ncc1Cl	< 100 nM
CCNc1nnc(-c2ccccc2Nc2nc(Nc3ccc4c(c3)CCOC(=O)N4C)ncc2Cl)o1	1000 to 10000 nM
CCN1CCCOc2cc(Nc3ncc(Cl)c(Nc4c(F)cccc4C(=O)NC)n3)c(F)cc21	< 100 nM
CN1CCN(C2CCN(C3CCc4ccc(Nc5ncc(Cl)c(Nc6c(F)cccc6OCC#N)n5)cc4CC3)CC2)CC1 (stereo not drawn)	< 100 nM
COCCN1C(=O)CCC(C)(C)c2ccc(Nc3ncc(Cl)c(N[C@H]4[C@@H](C(N)=O)[C@@H]5C=C[C@H]4C5)n3)cc21	< 100 nM
CNC(=O)c1ccccc1Nc1nc(Nc2ccc3c(c2)CNC(=O)CC3)ncc1Cl	< 100 nM
CCN1C(=O)CCCc2cc(Nc3ncc(Cl)c(N[C@@H]4CCCC[C@H]4N(C)S(C)(=O)=O)n3)c(OC)cc21	< 100 nM
CNC(=O)c1cccc(F)c1Nc1nc(Nc2ccc3c(c2)N(C(=O)CN(C)C)CCCC3(C)C)ncc1Cl	100 to 1000 nM
CNC(=O)c1scc(C)c1Nc1nc(Nc2ccc3c(c2)NC(=O)CN(C(=O)C(F)(F)F)C3)ncc1Cl	1000 to 10000 nM
NC(=O)C1C2C=CC(C2)C1Nc1nc(Nc2ccc3c(c2)CNC(=O)CC3)ncc1Cl (stereo not drawn)	< 100 nM
